System: A498
assay.text: NCI tumour cell line growth inhibition, 48 h
Activity calls are given as the source filed them. No stated cut-off is given here; in the data, active = GI50 up to about 1.1 µM and inactive = higher.
property.label: GI50

# count of solved cases: 5
CC1(C)C2CCC1(C)C(NC(=O)CCN1CCOCC1)C2 (centres undefined) = > 100 µM (inactive)
O=C(O)CCSCc1ccc(I)cc1 = > 100 µM (inactive)
CC(Cn1c2c(c3cc(O)ccc31)CCc1ccc(O)cc1-2)N(C)C (centres undefined) = 26.3 µM (inactive)
CC1(C)[C@@H]2C[C@H]1C(Cc1ccc(C[C@H]3c4cc(-c5ccccn5)ncc4[C@H]4C[C@@H]3C4(C)C)cc1)c1cc(-c3ccccn3)ncc12 (some centres undefined) = 2.36 µM (inactive)
CCC/C=C1\CCC(CN(C)C)C1=O (centres undefined) = 0.455 µM (active)

Fill in: GI50 on A498, entry "O=C(NC1(C(=O)O)CCCC1)c1ccccc1" > 100 µM (inactive)

Fill in: GI50 on A498, entry "Cc1nc2cc(C(F)(F)F)ccc2[nH]c1=O" > 100 µM (inactive)

Fill in: GI50 on A498, entry COc1ccc(/N=N/C(=O)NC(CC(C)C)C(=O)NC(C)C(=O)O)cc1 (centres undefined) > 100 µM (inactive)

Fill in: GI50 on A498, entry COC(=O)C(=O)C(C(=O)C(N)=O)c1nc2ccc(C(=O)c3ccccc3)cc2nc1O (centres undefined) > 100 µM (inactive)
